pKd by entry:
system under test: T1, CD30 fused to the Fc region of IgG1 (R&D Systems) (UniProt P28908 19-379)
T1 sequence (looked up): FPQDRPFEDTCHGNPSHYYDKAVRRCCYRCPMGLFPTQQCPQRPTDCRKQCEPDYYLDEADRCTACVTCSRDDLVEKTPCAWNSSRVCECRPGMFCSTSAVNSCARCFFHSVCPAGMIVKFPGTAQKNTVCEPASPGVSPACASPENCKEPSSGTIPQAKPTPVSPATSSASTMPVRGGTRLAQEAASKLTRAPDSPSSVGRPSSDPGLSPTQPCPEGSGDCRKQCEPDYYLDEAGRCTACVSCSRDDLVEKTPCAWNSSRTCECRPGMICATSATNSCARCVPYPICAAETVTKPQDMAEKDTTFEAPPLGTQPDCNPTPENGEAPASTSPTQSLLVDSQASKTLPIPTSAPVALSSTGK
experimental protocol: SPR, CD30-Fc on Protein A chip
# pKd = -log10(concentration in molar units)

binder | reported value
AC10 H0/L2 full length antibody (antibody, V domains shown) VH: QIQLQQSGPEVVKPGASVKISCKASGYTFTDYYITWVKQKPGQGLEWIGWIYPGSGNTKYNEKFKGKATLTVDTSSSTAFMQLSSLTSEDTAVYFCANYGNYWFAYWGQGTQVTVSA VL: DIVLTQSPSSLSASVGDRVTITCRASQSVDFDGDSYMNWYQQKPGQPPKVLIYAASNLESGIPARFSGSGSGTDFTLTISSLQPEDFATYYCQQSNEDPWTFGGGTKVEIK | 8.46
AC10 H2/L2 full length antibody (antibody, V domains shown) VH: QIQLVESGGGLVKPGGSLRLSCAASGYTFTDYYITWVRQAPGQGLEWMGWIYPGSGNTKYNEKFQGRVTMTVDTSTSTAYMELSSLRSEDTAVYFCANYGNYWFAYWGQGTLVTVSS VL: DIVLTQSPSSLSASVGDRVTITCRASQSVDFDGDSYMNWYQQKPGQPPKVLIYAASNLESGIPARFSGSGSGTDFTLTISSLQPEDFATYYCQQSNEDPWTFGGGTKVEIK | 8.23

[Q] For the binder shown here, AC10 H1/L2 full length antibody (antibody, V domains shown) VH: QIQLVQSGPEVKKPGASVKVSCKASGYTFTDYYITWVRQAPGQGLEWMGWIYPGSGNTKYNEKFQGRVTITVDTSASTAYMELSSLRSEDTAVYFCANYGNYWFAYWGQGTLVTVSS VL: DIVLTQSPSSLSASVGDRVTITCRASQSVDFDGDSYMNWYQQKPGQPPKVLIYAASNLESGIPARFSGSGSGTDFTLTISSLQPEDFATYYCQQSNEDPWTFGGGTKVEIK , give the reported pKd.
[A] 8.12

[Q] For the binder shown here, AC10 H1/L1 full length antibody (antibody, V domains shown) VH: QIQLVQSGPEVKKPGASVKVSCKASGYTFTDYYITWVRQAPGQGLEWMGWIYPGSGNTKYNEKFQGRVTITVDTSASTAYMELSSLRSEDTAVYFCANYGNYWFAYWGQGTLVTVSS VL: DIVLTQSPATLSLSPGERATLSCRASQSVDFDGDSYMNWYQQKPGQPPKVLIYAASNLESGIPARFSGSGSGTDFTLTISSLQPEDFATYYCQQSNEDPWTFGGGTKVEIK , give the reported pKd.
[A] 8.25
